test: in vivo; settings: rat
measurement kind: half-life (h)

[[record]]
compound_string = "CS(=O)(=O)c1ccc(C2=C(c3ccc(F)cc3)CCC2)cc1"
measurement_kind = "half-life"
unit_symbol = "h"
assay_value = 1.6

[[record]]
compound_string = "CS(=O)(=O)c1ccc(C2=C(c3ccc(F)cc3)CC3(CC3)C2)cc1"
measurement_kind = "half-life"
unit_symbol = "h"
assay_value = 2.3


----------
pIC50: −log10 of the molar value.
A set of compounds tested on Prostaglandin G/H synthase 1 (Homo sapiens, UniProt P23219), with measured pIC50:
measurement kind: pIC50

[[record]]
compound_string = "CS(=O)(=O)c1ccc(C2=CC3(C=C2c2ccc(F)cc2)CC3)cc1"
assay_value = 5.88

[[record]]
compound_string = "COc1ccc(C2=CC3(C=C2c2ccc(S(C)(=O)=O)cc2)CC3)cc1Cl"
assay_value = 5.47


----------
organism: Rattus norvegicus; assay: animal or person; assay type: functional
// boundary case: ED50 equal to 30 mg/kg maps to rule not met; strictly smaller maps to rule met

[[record]]
compound_string = "NS(=O)(=O)c1ccc(C2=C(c3ccc(C(F)(F)F)cc3)CC3(CC3)C2)cc1"
category = "rule not met"

[[record]]
compound_string = "COc1c(Cl)cc(C2=C(c3ccc(S(C)(=O)=O)cc3)CC3(CC3)C2)cc1Cl"
category = "rule not met"

[[record]]
compound_string = "COc1ccc(C2=C(c3ccc(S(C)(=O)=O)cc3)CC3(CC3)C2)cc1Cl"
category = "rule met"

[[record]]
compound_string = "COc1ccc(C2=C(c3ccc(S(N)(=O)=O)cc3)CC3(CC3)C2)cc1Cl"
category = "rule not met"

[[record]]
compound_string = "NS(=O)(=O)c1ccc(C2=C(c3ccc(F)cc3)CC3(CC3)C2)cc1"
category = "rule met"

[[record]]
compound_string = "COc1ccc(C2=C(c3ccc(S(N)(=O)=O)cc3)CC3(CC3)C2)cc1F"
category = "rule not met"

[[record]]
compound_string = "NS(=O)(=O)c1ccc(C2=C(c3ccc(Cl)c(Cl)c3)CC3(CC3)C2)cc1"
category = "rule not met"


----------
Reported inhibition values for the following compounds.
biological target: Cyclooxygenase (Rattus norvegicus) (UniProt P35355+Q63921); conditions: at 30 mg/kg
measurement kind: inhibition (%)

[[record]]
compound_string = "COc1ccc(C2=C(c3ccc(S(C)(=O)=O)cc3)CC3(CC3)C2)cc1Br"
measurement_kind = "inhibition"
unit_symbol = "%"
assay_value = 21

[[record]]
compound_string = "CS(=O)(=O)c1ccc(C2=C(c3ccc(F)cc3)CC3(CCC3)C2)cc1"
measurement_kind = "inhibition"
unit_symbol = "%"
assay_value = 23

[[record]]
compound_string = "COc1ccc(C2=C(c3ccc(S(C)(=O)=O)cc3)CC3(CC3)C2)cc1Cl"
measurement_kind = "inhibition"
unit_symbol = "%"
assay_value = 42

[[record]]
compound_string = "CS(=O)(=O)c1ccc(C2=C(c3ccc(F)c(F)c3)CC3(CC3)C2)cc1"
measurement_kind = "inhibition"
unit_symbol = "%"
assay_value = 23

[[record]]
compound_string = "COc1ccc(C2=C(c3ccc(S(N)(=O)=O)cc3)CC3(CC3)C2)cc1Cl"
measurement_kind = "inhibition"
unit_symbol = "%"
assay_value = 47

[[record]]
compound_string = "COc1ccc(C2=C(c3ccc(S(C)(=O)=O)cc3)CC3(CC3)C2)cc1"
measurement_kind = "inhibition"
unit_symbol = "%"
assay_value = 0

[[record]]
compound_string = "CS(=O)(=O)c1ccc(C2=C(c3ccc(F)c(Cl)c3)CC3(CC3)C2)cc1"
measurement_kind = "inhibition"
unit_symbol = "%"
assay_value = 38

[[record]]
compound_string = "NS(=O)(=O)c1ccc(C2=C(c3ccc(C(F)(F)F)cc3)CC3(CC3)C2)cc1"
measurement_kind = "inhibition"
unit_symbol = "%"
assay_value = 46

[[record]]
compound_string = "NS(=O)(=O)c1ccc(C2=C(c3ccc(F)cc3)CC3(CC3)C2)cc1"
measurement_kind = "inhibition"
unit_symbol = "%"
assay_value = 60

[[record]]
compound_string = "CS(=O)(=O)c1ccc(C2=C(c3ccc(F)cc3)CC3(CC3)C2)cc1"
measurement_kind = "inhibition"
unit_symbol = "%"
assay_value = 49

[[record]]
compound_string = "CS(=O)(=O)c1ccc(C2=C(c3ccc(OC(F)(F)F)cc3)CC3(CC3)C2)cc1"
measurement_kind = "inhibition"
unit_symbol = "%"
assay_value = 20

[[record]]
compound_string = "NS(=O)(=O)c1ccc(C2=C(c3ccc(F)c(F)c3)CC3(CC3)C2)cc1"
measurement_kind = "inhibition"
unit_symbol = "%"
assay_value = 18

[[record]]
compound_string = "COc1ccc(C2=C(c3ccc(S(C)(=O)=O)cc3)CC3(CC3)C2)cc1F"
measurement_kind = "inhibition"
unit_symbol = "%"
assay_value = 30

[[record]]
compound_string = "COc1c(Cl)cc(C2=C(c3ccc(S(C)(=O)=O)cc3)CC3(CC3)C2)cc1Cl"
measurement_kind = "inhibition"
unit_symbol = "%"
assay_value = 44

[[record]]
compound_string = "CS(=O)(=O)c1ccc(C2=C(c3ccc(Cl)c(Cl)c3)CC3(CC3)C2)cc1"
measurement_kind = "inhibition"
unit_symbol = "%"
assay_value = 23

[[record]]
compound_string = "CS(=O)(=O)c1ccc(C2=C(c3ccc(C(F)(F)F)cc3)CC3(CC3)C2)cc1"
measurement_kind = "inhibition"
unit_symbol = "%"
assay_value = 35

[[record]]
compound_string = "COc1ccc(C2=C(c3ccc(S(N)(=O)=O)cc3)CC3(CC3)C2)cc1F"
measurement_kind = "inhibition"
unit_symbol = "%"
assay_value = 40


----------
experiment: in vivo; conditions: rat, po, 10 mg/kg
Reported bioavailability values for the following molecules.
measurement kind: bioavailability

[[record]]
molecule = "CS(=O)(=O)c1ccc(C2=C(c3ccc(F)cc3)CC3(CC3)C2)cc1"
assay_value = "58%"

[[record]]
molecule = "CS(=O)(=O)c1ccc(C2=C(c3ccc(F)cc3)CCC2)cc1 [SC-57666]"
assay_value = "11%"


----------
species: Rattus norvegicus; assay: animal or person; settings: read-out: Inhibition
Outcome label depends on inhibition in vivo at 1 mg/kg relative to 80%: at/above gives condition met, below gives condition not met.

[[record]]
compound_string = "NS(=O)(=O)c1ccc(C2=C(c3ccc(F)cc3)CC3(CC3)C2)cc1"
category = "condition met"

[[record]]
compound_string = "CS(=O)(=O)c1ccc(C2=C(c3ccc(F)cc3)CC3(CC3)C2)cc1"
category = "condition not met"

[[record]]
compound_string = "COc1ccc(C2=C(c3ccc(S(N)(=O)=O)cc3)CC3(CC3)C2)cc1F"
category = "condition met"

[[record]]
compound_string = "COc1c(Cl)cc(C2=C(c3ccc(S(C)(=O)=O)cc3)CC3(CC3)C2)cc1Cl"
category = "condition not met"

